# assayNotes: Lipophilicity, log K of the compound
# Assay type: physicochemical
# protocolConditions: HPLC
readoutKind: log K

structureassmiles=O=C(O)c1cccc2nc(/C=C/c3ccccc3O)ccc12 readoutkind="log K" observed=1.255
structureassmiles=Oc1cccc2ccc(/C=C/c3cccc(Cl)c3)nc12 readoutkind="log K" observed=1.5395
structureassmiles=O=C(O)c1ccc2nc(/C=C/c3ccccc3O)ccc2c1 readoutkind="log K" observed=1.3842
structureassmiles=COc1cccc(/C=C/c2ccc3c(C(=O)O)cccc3n2)c1 readoutkind="log K" observed=1.2263
structureassmiles=O=C(O)c1ccc2nc(/C=C/c3cccc(Cl)c3)ccc2c1 readoutkind="log K" observed=1.6315
structureassmiles=O=C(O)c1ccc2ccc(/C=C/c3ccccc3O)nc2c1 readoutkind="log K" observed=1.3678
structureassmiles=O=C(O)c1ccc(C(=O)O)c2nc(/C=C/c3ccccc3Cl)ccc12 readoutkind="log K" observed=1.2047

====

# assayNotes: Lipophilicity, log K of the compound
# Format: physicochemical
# protocolConditions: HPLC
Quick list: log K per entry.
readoutKind: log K

structureassmiles=O=C(O)c1cccc2ccc(/C=C/c3ccc(Cl)cc3)nc12 observed=1.8165
structureassmiles=COc1cccc(/C=C/c2ccc3c(C(=O)O)ccc(C(=O)O)c3n2)c1 observed=1.1811
structureassmiles=COC1=CC(=O)c2ccc(C)nc2C1=O observed=0.0907
structureassmiles=O=C(O)c1cccc2nc(/C=C/c3ccc(Br)cc3)ccc12 observed=1.4397
structureassmiles=CC(=O)NC1=CC(=O)c2ccc(C)nc2C1=O observed=0.2227
structureassmiles=O=C(O)c1ccc2nc(/C=C/c3ccc(Cl)cc3)ccc2c1 observed=1.6043
structureassmiles=O=[N+]([O-])c1cc([N+](=O)[O-])c2cccnc2c1O observed=0.7154
structureassmiles=O=C(O)c1cccc2ccc(/C=C/c3ccccc3O)nc12 observed=1.6787
structureassmiles=O=C(O)c1ccc(C(=O)O)c2nc(/C=C/c3cccc(Cl)c3)ccc12 observed=1.2163
structureassmiles=O=C(O)c1ccc(C(=O)O)c2nc(/C=C/c3ccc(Cl)cc3)ccc12 observed=1.2107
structureassmiles=O=C(O)c1ccc(C(=O)O)c2nc(/C=C/c3ccccc3Br)ccc12 observed=1.2062
